Values compiled from patent US4769374A.

- Test system: spontaneous hypertensive rats (systolic pressure of the caudal artery)
- Procedure summary: Antihypertensive activity per os in spontaneous hypertensive rats
- Format: in vivo, rat
- Condition parameters: 3 mg/kg p.o., 15 min, percentage of the decrease of the systolic pressure
Observation type: Pressure variations (pressure time 0 - less pressure after administration), 15 min. (%)

{"Compound": "CCOC(=O)C1=C(C)NC(C)=C(C(=O)OCCN2CCc3ccccc3C2)C1c1cccc([N+](=O)[O-])c1 (centres unmarked)", "Subject of test": "spontaneous hypertensive rats (systolic pressure of the caudal artery)", "Unit tag": "%", "Readout number": 43}
{"Compound": "COC(=O)C1=C(C)NC(C)=C(C(=O)OCCN(C)Cc2ccccc2)C1c1cccc([N+](=O)[O-])c1 (centres unmarked) [Nicardipine, reference compound]", "Subject of test": "spontaneous hypertensive rats (systolic pressure of the caudal artery)", "Unit tag": "%", "Readout number": 49}
{"Compound": "COC(=O)C1=C(C)NC(C)=C(C(=O)OCCN2CCc3ccccc3C2)C1c1cccc([N+](=O)[O-])c1.Cl (centres unmarked)", "Subject of test": "spontaneous hypertensive rats (systolic pressure of the caudal artery)", "Unit tag": "%", "Readout number": 54}
{"Compound": "CC1=C(C(=O)OCCN2CCc3ccccc3C2)C(c2cccc([N+](=O)[O-])c2)C(C(=O)OC(C)C)=C(C)N1 (centres unmarked)", "Subject of test": "spontaneous hypertensive rats (systolic pressure of the caudal artery)", "Unit tag": "%", "Readout number": 39}
{"Compound": "COC(=O)C1=C(C)NC(C)=C(C(=O)OC)C1c1ccccc1[N+](=O)[O-] [Nifedipine, reference compound]", "Subject of test": "spontaneous hypertensive rats (systolic pressure of the caudal artery)", "Unit tag": "%", "Readout number": 41}
